Recorded pest or weed control at 15.625 g/ha by entry
# Test system: velvetleaf (Abutilon theophrasti)
# procedure.summary: Test G Pre-Emergence Protocol
# Type: in vivo
# experimental.context: Abutilon theophrasti, pre-emergence, 312 h, 15.625 g ai/ha, evaluated after 13 days, read-out: Velvetleaf damage rating (100=total damage to plant; 0=no damage to plant)
Entry rule: numbers only, all in %.

Write down the reported pest or weed control at 15.625 g/ha (system: velvetleaf (Abutilon theophrasti)) of CN1C[C@H](c2cc(C(C)(C)C)ncn2)[C@@H](C(=O)Nc2cccc(F)c2F)C1=O (racemic)
0

More entries:
With velvetleaf (Abutilon theophrasti) as the test system, provide measured pest or weed control at 15.625 g/ha for this compound: CN1C[C@H](c2ccc(C(F)(F)F)cc2)[C@@H](C(=O)Nc2cccnc2[S+](C)[O-])C1=O (mixture of isomers)
0

meta.source: patent US12077503B2
